Data provenance is patent US20250263753A1.

Assay system: ATM (Homo sapiens (Human), UniProt Q13315)
Sequence (Q13315 whole entry): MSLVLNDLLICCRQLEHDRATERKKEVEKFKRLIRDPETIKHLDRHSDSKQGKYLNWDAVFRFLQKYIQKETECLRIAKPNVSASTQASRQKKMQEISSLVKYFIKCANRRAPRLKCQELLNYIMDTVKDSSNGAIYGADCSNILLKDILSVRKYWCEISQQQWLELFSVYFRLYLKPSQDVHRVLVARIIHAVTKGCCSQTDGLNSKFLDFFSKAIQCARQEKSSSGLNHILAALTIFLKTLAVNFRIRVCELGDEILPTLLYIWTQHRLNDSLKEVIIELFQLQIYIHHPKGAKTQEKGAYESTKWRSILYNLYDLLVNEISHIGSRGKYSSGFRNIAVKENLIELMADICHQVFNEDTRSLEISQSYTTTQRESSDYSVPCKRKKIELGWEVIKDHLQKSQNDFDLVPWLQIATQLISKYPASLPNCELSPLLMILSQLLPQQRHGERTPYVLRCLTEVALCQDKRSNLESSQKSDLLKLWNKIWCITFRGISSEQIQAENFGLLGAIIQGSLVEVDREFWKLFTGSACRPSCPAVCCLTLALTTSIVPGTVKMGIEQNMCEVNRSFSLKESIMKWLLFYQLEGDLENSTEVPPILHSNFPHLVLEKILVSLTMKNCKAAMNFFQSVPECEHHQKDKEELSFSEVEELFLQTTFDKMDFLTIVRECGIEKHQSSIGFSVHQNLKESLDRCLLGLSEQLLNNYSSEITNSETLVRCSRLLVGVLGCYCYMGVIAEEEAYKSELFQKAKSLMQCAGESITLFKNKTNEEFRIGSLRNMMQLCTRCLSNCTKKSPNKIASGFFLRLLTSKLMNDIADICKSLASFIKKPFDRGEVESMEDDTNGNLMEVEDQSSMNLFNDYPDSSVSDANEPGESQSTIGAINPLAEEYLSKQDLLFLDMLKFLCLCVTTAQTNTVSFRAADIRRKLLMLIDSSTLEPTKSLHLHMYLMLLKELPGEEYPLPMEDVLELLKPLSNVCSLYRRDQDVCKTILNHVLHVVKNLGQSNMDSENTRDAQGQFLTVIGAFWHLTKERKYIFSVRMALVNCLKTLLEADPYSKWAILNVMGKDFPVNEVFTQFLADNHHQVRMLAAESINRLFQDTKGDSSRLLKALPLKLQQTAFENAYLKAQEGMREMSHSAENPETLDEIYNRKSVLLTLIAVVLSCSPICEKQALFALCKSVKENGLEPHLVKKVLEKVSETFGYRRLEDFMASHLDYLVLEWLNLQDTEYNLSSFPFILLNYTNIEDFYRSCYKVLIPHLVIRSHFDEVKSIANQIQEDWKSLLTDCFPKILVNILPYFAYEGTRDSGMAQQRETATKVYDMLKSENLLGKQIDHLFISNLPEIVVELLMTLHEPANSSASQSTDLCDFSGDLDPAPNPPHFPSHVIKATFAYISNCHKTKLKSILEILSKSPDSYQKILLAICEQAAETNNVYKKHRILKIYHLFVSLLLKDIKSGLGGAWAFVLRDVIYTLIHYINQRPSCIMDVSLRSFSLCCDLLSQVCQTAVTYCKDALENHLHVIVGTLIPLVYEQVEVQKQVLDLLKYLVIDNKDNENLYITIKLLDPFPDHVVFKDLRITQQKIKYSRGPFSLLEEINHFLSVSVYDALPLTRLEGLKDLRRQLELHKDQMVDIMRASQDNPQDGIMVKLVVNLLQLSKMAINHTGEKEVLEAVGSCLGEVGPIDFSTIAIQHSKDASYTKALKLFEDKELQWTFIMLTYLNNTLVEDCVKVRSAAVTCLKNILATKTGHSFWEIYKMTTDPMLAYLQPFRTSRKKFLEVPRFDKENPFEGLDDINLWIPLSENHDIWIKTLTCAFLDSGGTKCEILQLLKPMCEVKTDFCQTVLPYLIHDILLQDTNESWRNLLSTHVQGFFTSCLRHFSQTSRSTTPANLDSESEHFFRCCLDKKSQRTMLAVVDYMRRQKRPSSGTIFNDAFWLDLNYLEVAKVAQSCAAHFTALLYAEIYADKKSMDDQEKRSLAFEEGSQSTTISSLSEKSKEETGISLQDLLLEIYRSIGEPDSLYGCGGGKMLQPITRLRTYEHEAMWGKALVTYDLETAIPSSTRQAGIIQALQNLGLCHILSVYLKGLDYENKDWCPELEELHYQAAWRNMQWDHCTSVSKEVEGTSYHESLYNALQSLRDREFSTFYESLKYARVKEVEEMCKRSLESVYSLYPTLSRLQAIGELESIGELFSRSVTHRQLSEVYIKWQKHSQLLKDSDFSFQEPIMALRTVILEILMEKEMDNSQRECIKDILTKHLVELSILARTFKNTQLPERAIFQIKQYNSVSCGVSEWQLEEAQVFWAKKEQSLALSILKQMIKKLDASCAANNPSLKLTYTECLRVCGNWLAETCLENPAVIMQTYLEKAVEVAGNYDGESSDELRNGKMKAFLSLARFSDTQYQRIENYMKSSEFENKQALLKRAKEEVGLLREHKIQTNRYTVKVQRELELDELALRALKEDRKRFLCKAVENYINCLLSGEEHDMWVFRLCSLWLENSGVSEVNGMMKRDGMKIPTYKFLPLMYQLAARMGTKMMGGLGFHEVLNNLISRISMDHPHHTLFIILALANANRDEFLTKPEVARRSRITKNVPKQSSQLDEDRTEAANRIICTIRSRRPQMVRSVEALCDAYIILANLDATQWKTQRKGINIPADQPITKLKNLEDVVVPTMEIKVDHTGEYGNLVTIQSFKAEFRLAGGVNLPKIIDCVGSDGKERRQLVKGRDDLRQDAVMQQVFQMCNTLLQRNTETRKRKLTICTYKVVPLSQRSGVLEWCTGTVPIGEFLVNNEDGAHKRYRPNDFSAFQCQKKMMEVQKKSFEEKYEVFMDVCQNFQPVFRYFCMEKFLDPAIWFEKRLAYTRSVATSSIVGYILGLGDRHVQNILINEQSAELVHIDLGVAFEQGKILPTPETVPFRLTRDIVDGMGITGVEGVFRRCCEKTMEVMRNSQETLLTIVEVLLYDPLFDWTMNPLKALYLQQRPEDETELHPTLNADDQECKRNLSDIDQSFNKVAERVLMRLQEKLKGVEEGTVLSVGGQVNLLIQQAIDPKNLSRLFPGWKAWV
Assay remarks: ATM biochemical assay (Reaction Biology HTRF kinase assay, 10 μM ATP)
Test parameters: read-out: ATM HTRF 10 μM ATP IC50, numeric value
Experimental: Ataxia-Telangiectasia Mutated (ATM) Biochemical Assay Using Reaction Biology's HTRF Kinase Assay Protocol: The assay detects kinase activity by antibody based HTRF assay. The GST-tagged p53 protein serves as substrate and Eu-labeled-antibody with specific phosphorylation site binds upon phosphorylation which is monitored by HTRF from the anti-GST-d2. Reagent: Reaction buffer; 50 mM Hepes (pH 7.5), 150 mM NaCl, 10 mM MnCl2, 1% Glycerol, 0.01% Brij35, 1 mM DTT, 1% DMSO. […]
pIC50: recorded values
Scale explanation: pIC50 corresponds to minus log10 of a concentration expressed in moles per litre.

>  <Smiles str>
Cc1cc2ncnn2cc1Nc1ncc2c(n1)n(C13CCC(O)(CC1)C3)c(=O)n2C

>  <Assay system>
ATM (Homo sapiens (Human), UniProt Q13315)

>  <pIC50>
7.06

$$$$

Now for the compound whose pIC50 we want.
Q: Item `Cc1cc2ncnn2cc1Nc1ncc2c(n1)n(C13CCC(O)(CC1)CC3)c(=O)n2C` has what recorded pIC50?
Result: 7.44
